Overview of recorded LC retention time for various compounds
assay: LC retention time (Atlantis T3, 5-95% MeOH gradient, 0.1% formic acid); higher = more retained / less polar
Report the figure in min without appending any unit label.

Example entries begin here.
{"COMPOUND": "CCCS(=O)(=O)[O-] [1-Propanesulfonate]", "TEST_VALUE": 6.6}
{"COMPOUND": "CC(C)(C)C(O)C(Oc1ccc(Cl)cc1)n1cncn1 (centres undefined)", "TEST_VALUE": 20}
{"COMPOUND": "Nc1ccn(C2OC(CO)C(O)C2O)c(=O)n1 (centres undefined)", "TEST_VALUE": 15.6}
{"COMPOUND": "COCc1cnc(C2=NC(C)(C(C)C)C(=O)N2)c(C(=O)[O-])c1 (centres undefined)", "TEST_VALUE": 15.1}
{"COMPOUND": "COC(=O)N(OC)c1ccccc1COc1ccn(-c2ccc(Cl)cc2)n1", "TEST_VALUE": 21.1}
{"COMPOUND": "CC12CCC(=O)C=C1CCC1C2C(=O)CC2(C)C1CCC2(O)C(=O)CO (centres undefined)", "TEST_VALUE": 17.5}
{"COMPOUND": "Fc1ccc(C2(Cn3cncn3)OC2c2ccccc2Cl)cc1 (centres undefined)", "TEST_VALUE": 20.3}
{"COMPOUND": "CS(=O)(=O)c1ccc(C(=O)[C-]2C(=O)CCCC2=O)c([N+](=O)[O-])c1", "TEST_VALUE": 16}

The reported value for CCOCN(C(=O)CS(=O)(=O)[O-])c1c(C)cccc1CC in terms of LC retention time is 17.2
